Test system: U2OS
assay_comment: Multiplex assay against U2OS
Format: toxicity, cell-based
condition_label: human, 24 h, 1 µM, compound concentration 1 uM, replicate 1
Below: a set of entries, each annotated with reported Population Fragmented Nuclei (%).
Please give a number only; it is taken to be in %.

COCCn1c(C)c(C)s/c1=N\C(=O)C1C(C)(C)C1(C)C: 18

Entry under test: `CCCCCCNC(=O)Nc1ccc(S(=O)(=O)Nc2ccc(CCNC[C@H](O)COc3ccc(O)cc3)cc2)cc1` . Its Population Fragmented Nuclei (%) was 22

Entry under test: `COc1cc(OC2CCN(C(C)=O)CC2)ccc1C(=O)N1CCC(N2C(=O)OCc3ccccc32)CC1` . Its Population Fragmented Nuclei (%) was 20

Entry under test: `CCCCC[C@H](O)/C=C/[C@H]1[C@H](O)CC(=O)[C@@H]1CCCCCCC(=O)O` . Its Population Fragmented Nuclei (%) was 25

Entry under test: COc1cc2nc(N3CCN(C(=O)c4ccco4)CC3)nc(N)c2cc1OC.Cl [PRAZOSIN HYDROCHLORIDE] . Its Population Fragmented Nuclei (%) was 22

Entry under test: `OCCCNc1cc(-c2ccnc(Nc3cccc(Cl)c3)n2)ccn1` . Its Population Fragmented Nuclei (%) was 43

Entry under test: `Cc1nn(C)c2nc(NNC(=O)Nc3cc(Cl)nc(Cl)c3)cc(C(C)C)c12` . Its Population Fragmented Nuclei (%) was 20

Entry under test: `Nc1nc(-c2ccco2)c2cnn(Cc3ccccc3F)c2n1` . Its Population Fragmented Nuclei (%) was 19

Entry under test: `Cc1sc2c(c1C)C(c1ccc(Cl)cc1)=N[C@H](CC(=O)OC(C)(C)C)c1nnc(C)n1-2` . Its Population Fragmented Nuclei (%) was 22

###

System: U2OS
assay_comment: Multiplex assay against U2OS
Format: toxicity, cell-based
condition_label: human, 12 h, 10 µM, compound concentration 10 uM, replicate 1
Below: a set of entries, each annotated with reported Population Fragmented Nuclei (%).
Please give a number only; it is taken to be in %.

O=C(Nc1cc(-c2ccccc2)nn1-c1ccccc1F)c1ccc([N+](=O)[O-])cc1: 30
CN1CCN2c3ccccc3Cc3ccccc3C2C1.Cl (stereo unspecified) [MIANSERIN HYDROCHLORIDE]: 23
CN(C)C/C=C/C(=O)Nc1ccc(C(=O)N2CCCC(Nc3ncc(Cl)c(-c4c[nH]c5ccccc45)n3)C2)cc1 (stereo unspecified): 31
COc1cc(Nc2ncc3c(n2)-c2ccc(Cl)cc2C(c2c(F)cccc2OC)=NC3)ccc1C(=O)O [ALISERTIB]: 31
S=C(NCCCc1c[nH]cn1)NCCCN(Cc1ccc(Cl)c(Cl)c1)c1ccc(Br)cn1: 27
C[C@@H]1CC(=O)Nc2cccc(-c3ccc4c(c3)c(-c3cnn(C)c3)nn4C)c2N1: 29

We now examine a further molecule.
Entry under test: `Cc1sc2c(c1C)C(c1ccc(Cl)cc1)=N[C@H](CC(=O)OC(C)(C)C)c1nnc(C)n1-2` . Its Population Fragmented Nuclei (%) was 32

###

Below: a set of entries, each annotated with reported Population Hoechst High Intensity Objects (%).
System: Fibroblast
assay_comment: Multiplex assay against human fibroblast
Assay type: toxicity, cell-based
condition_label: 12 h, 1 µM, compound concentration 1 uM, replicate 1
Please give a number only; it is taken to be in %.

Here is how some molecules turned out for Population Hoechst High Intensity Objects (%).
CN1CCC(C(=O)c2cccc(NC(=O)c3c(F)cc(F)cc3F)n2)CC1: 3
Cc1cc(NC(=O)NCCN2CCC(O)(Cc3ccccc3)CC2)c2ccccc2n1 [PALOSURAN]: 2
CSc1nc(NC2CCCC2)c([N+](=O)[O-])c(NC2CCCC2)n1 [GS-39783]: 3

Entry under test: `COc1cc2nc(N3CCN(C(=O)COc4c(OC)cccc4C(C)C)CC3)nc(N)c2cc1OC.Cl.Cl` . Its Population Hoechst High Intensity Objects (%) was 4

Entry under test: `C[C@@H]1CC(=O)Nc2cccc(-c3ccc4c(c3)c(-c3cnn(C)c3)nn4C)c2N1` . Its Population Hoechst High Intensity Objects (%) was 1

Entry under test: `OCCCNc1cc(-c2ccnc(Nc3cccc(Cl)c3)n2)ccn1` . Its Population Hoechst High Intensity Objects (%) was 4

###

Tested on: U2OS
assay_comment: Multiplex assay against U2OS
Assay type: toxicity, cell-based
condition_label: human, 24 h, 10 µM, compound concentration 10 uM, replicate 1
Below: a set of entries, each annotated with reported Population Membrane Permeable-Phenotype (%).

CN1CCN(c2ccc(Nc3c4ccccc4nc4ccccc34)cc2)CC1.Cl.Cl.O: 85%
S=C(NCCCc1c[nH]cn1)NCCCN(Cc1ccc(Cl)c(Cl)c1)c1ccc(Br)cn1: 59%
C[C@@H]1CC(=O)Nc2cccc(-c3ccc4c(c3)c(-c3cnn(C)c3)nn4C)c2N1: 7%
CCCCCCNC(=O)Nc1ccc(S(=O)(=O)Nc2ccc(CCNC[C@H](O)COc3ccc(O)cc3)cc2)cc1: 7%
COc1ccc2[nH]c(I)c(CCNC(C)=O)c2c1: 4%
CN(C)C(=O)Cn1cc(-c2ccc(-c3nnc4ccccn34)cc2)cn1: 4%
Cc1ccc(OCC(O)C(C)NC(C)C)c2c1CCC2.Cl (centres undefined): 10%
C[C@H](NC(=O)CNC(=O)c1cccc(Cl)c1)c1ccccc1: 6%

We now examine a further molecule.
Entry under test: `CC(C)C[C@H](CO)Nc1nc(S[C@@H](C)c2ccccc2)nc2nc(N)sc12` . Its Population Membrane Permeable-Phenotype (%) was 22%

###

Below: a set of entries, each annotated with reported Population Apoptotic (%).
Test system: HEK-293T
assay_comment: Multiplex assay against HEK293T
Type: toxicity, cell-based
condition_label: human, 24 h, 1 µM, compound concentration 1 uM, replicate 1
Please give a number only; it is taken to be in %.

COCCCN1CCC(NC(=O)c2cc(Cl)c(N)c3c2OCC3)CC1 [PRUCALOPRIDE]: 20

Entry under test: `Cc1nn(C)c2nc(NNC(=O)Nc3cc(Cl)nc(Cl)c3)cc(C(C)C)c12` . Its Population Apoptotic (%) was 31

Entry under test: COc1cc2nc(N3CCN(C(=O)c4ccco4)CC3)nc(N)c2cc1OC.Cl [PRAZOSIN HYDROCHLORIDE] . Its Population Apoptotic (%) was 38

###

System: U2OS
assay_comment: Multiplex assay against U2OS
Assay type: toxicity, cell-based
condition_label: human, 24 h, 10 µM, compound concentration 10 uM, replicate 1
Please note: Population Mitochondria Different-Phenotype (%) exactly at 6% is label 0. Only values below 6% get label 1.

Check out these entries, answers already filled in.
S=C(NCCCc1c[nH]cn1)NCCCN(Cc1ccc(Cl)c(Cl)c1)c1ccc(Br)cn1: label 0
OCCCNc1cc(-c2ccnc(Nc3cccc(Cl)c3)n2)ccn1: label 0
CN(C)C(=O)Cn1cc(-c2ccc(-c3nnc4ccccn34)cc2)cn1: label 1
O=C(NCCNCC(O)COc1ccc(O)cc1)N1CCOCC1.O=C(NCCNCC(O)COc1ccc(O)cc1)N1CCOCC1.O=C(O)/C=C/C(=O)O (configuration not stated) [XAMOTEROL FUMARATE]: label 1
CC(C)(O)C(=O)N1CCN(c2ccc(C(F)(F)F)c(C3=C(c4c[nH]c5ccccc45)C(=O)NC3=O)c2)CC1: label 0

**Q:** Quick check: Population Mitochondria Different-Phenotype (%) of CN1CCN2c3ccccc3Cc3ccccc3C2C1.Cl (configuration not stated) [MIANSERIN HYDROCHLORIDE] under 6%?
**A:** label 1

**Q:** Quick check: Population Mitochondria Different-Phenotype (%) of `Cc1cc(NC(=O)NCCN2CCC(O)(Cc3ccccc3)CC2)c2ccccc2n1` under 6%?
**A:** label 1

**Q:** Quick check: Population Mitochondria Different-Phenotype (%) of CCC(=O)OCC(=O)[C@@]1(OC(=O)CC)[C@@H](C)C[C@H]2[C@@H]3CCC4=CC(=O)C=C[C@]4(C)[C@@]3(Cl)[C@@H](O)C[C@@]21C [BECLOMETHASONE DIPROPIONATE] under 6%?
**A:** label 0

**Q:** Quick check: Population Mitochondria Different-Phenotype (%) of `C=CCN1C[C@H](C(=O)N(CCCN(C)C)C(=O)NCC)C[C@@H]2c3cccc4[nH]cc(c34)C[C@H]21` under 6%?
**A:** label 1

**Q:** Quick check: Population Mitochondria Different-Phenotype (%) of `CC(C)(C)c1ccc(CSc2cnn(C(C)(C)C)c(=O)c2Cl)cc1` under 6%?
**A:** label 1

**Q:** Quick check: Population Mitochondria Different-Phenotype (%) of `COCCn1c(C)c(C)s/c1=N\C(=O)C1C(C)(C)C1(C)C` under 6%?
**A:** label 0

**Q:** Quick check: Population Mitochondria Different-Phenotype (%) of `CCCCCCNC(=O)Nc1ccc(S(=O)(=O)Nc2ccc(CCNC[C@H](O)COc3ccc(O)cc3)cc2)cc1` under 6%?
**A:** label 1

**Q:** Quick check: Population Mitochondria Different-Phenotype (%) of `O=c1nc2[nH]c3ccccc3nc-2c(=O)[nH]1` under 6%?
**A:** label 1

**Q:** Quick check: Population Mitochondria Different-Phenotype (%) of `O=C(Nc1cc(-c2ccccc2)nn1-c1ccccc1F)c1ccc([N+](=O)[O-])cc1` under 6%?
**A:** label 1
